Exercise: for every item that follows, state its recorded EC50.
Molecular target: Somatostatin Receptor 2 (SSTR2) (Homo sapiens, UniProt P30874)
Construct: expressed in transfected cells
Sequence (P30874 whole entry, species assumed): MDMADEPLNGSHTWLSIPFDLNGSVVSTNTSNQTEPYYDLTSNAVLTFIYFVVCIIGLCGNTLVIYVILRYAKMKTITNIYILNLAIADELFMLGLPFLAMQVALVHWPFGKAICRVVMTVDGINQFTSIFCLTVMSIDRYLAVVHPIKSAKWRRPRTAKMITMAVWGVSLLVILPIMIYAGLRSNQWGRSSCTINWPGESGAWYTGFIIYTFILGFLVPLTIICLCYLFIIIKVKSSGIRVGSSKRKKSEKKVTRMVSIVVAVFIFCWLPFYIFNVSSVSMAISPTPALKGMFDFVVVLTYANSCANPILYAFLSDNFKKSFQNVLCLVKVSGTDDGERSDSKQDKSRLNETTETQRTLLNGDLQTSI
Experiment: Biochemical Assay for Activation of Somatostatin Receptor 2 (SSTR2), Cisbio HTRF cAMP assay
Format: cell-based
Conditions: average pEC50; HTRF cAMP assay in stably-transfected cell line expressing SSTR2; cells incubated with compounds for 1-2h
Numbers only, in nM.

Record EC50 per entry; entries follow.
1. NC1CCN(c2c(-c3cc(F)cc(F)c3)cnc3sc(-c4cc(F)cc(F)c4)cc23)CC1 [Compound 134]
2. Cc1cc(F)cc(-c2cnc3ccc(-c4cccc(C#N)c4O)cc3c2N2CCC(NC(=N)N)CC2)c1 [Compound 136]
3. N#Cc1cccc(-c2ccc3ncc(-c4cc(F)cc(F)c4)c(N4CCC(O)CC4)c3c2)c1NCCCN [Compound 146]
4. Cc1cc(F)cc(-c2cnc3ccc4cc3c2N2CCC(CC2)NCC(CO)CCOc2c(C#N)cccc2-4)c1 (single isomer, unassigned) [Compound 90]
5. Cc1cc(F)cc(-c2cnc3ccc4cc3c2N2CCC(CC2)NCC[C@H](N)COc2c(C#N)cccc2-4)c1 (single isomer, unassigned) [Compound 99]

[631, 20, 398, 15.8, 7.94]

###

Target: Somatostatin Receptor 2 (SSTR2) (Homo sapiens, UniProt P30874)
Assay: Biochemical Assay for Activation of Somatostatin Receptor 2 (SSTR2), Cisbio HTRF cAMP assay
Conditions: average pEC50; HTRF cAMP assay in stably-transfected cell line expressing SSTR2; cells incubated with compounds for 1-2h
Task for the reader: assign each of the following compounds its reported EC50.

See these solved cases before continuing.
compound | measurement
Cc1cc(F)cc(-c2cnc3ccc4cc3c2N2CCC(CC2)NC[C@H](CO)CCOc2c(C#N)cccc2-4)c1 (single isomer, unassigned) [Compound 91] | 6.31 nM
N#Cc1cccc(-c2ccc3ncc(-c4cc(F)cc(F)c4)c(N4CC5(CNC5)C4)c3c2)c1O [Compound 137] | > 10000 nM
CNCCCn1c(=O)n2c3cc(F)c(F)cc3nc2c2cncc(-c3cc(F)cc(F)c3)c21 [Compound 106] | 2000 nM

Switching to the query record.
Input COc1cc(F)cc(-c2cnc3[nH]c(-c4ccc5[nH]c(=O)[nH]c5c4)nc3c2N2CCC(N)CC2)c1 [Compound 56] , output reported EC50.
1580 nM

###

Molecular target: Somatostatin Receptor 2 (SSTR2) (Homo sapiens)
Assay: Biochemical Assay for Activation of Somatostatin Receptor 2 (SSTR2), Cisbio HTRF cAMP assay
Conditions: average pEC50; HTRF cAMP assay in stably-transfected cell line expressing SSTR2; cells incubated with compounds for 1-2h
endpoint: EC50
Provide the measurement as a number trailed by its unit.

Previously resolved entries follow.
compound | measurement
CC(N)CCN1CCc2c(-c3cc(F)cc(F)c3)ccc3ncc(-c4cc(F)cc(F)c4)c1c23 (stereo not shown) [Compound 155] | 631 nM
NC1CCN(c2c(-c3cc(F)cc(F)c3)cnc3c(CO)cc(-c4cc(F)cc(F)c4)cc23)CC1 [Compound 160] | 0.0251 nM
NC(=O)c1cc(F)cc(-c2cc3ncc(-c4cc(F)cc(F)c4)c(N4CCC(N)CC4)c3o2)c1 [Compound 128] | 100 nM

Provide EC50, system Somatostatin Receptor 2 (SSTR2) (Homo sapiens), entry CN1c2c(cnc3ccc(-c4cc(F)cc(F)c4)cc23)-c2cc(F)cc(F)c2C1CCN (stereo not shown) [Compound 157]
10 nM

###

Answer each item with its documented pEC50.
Molecular target: Somatostatin Receptor 2 (SSTR2) (Homo sapiens, UniProt P30874)
Test: Biochemical Assay for Activation of Somatostatin Receptor 2 (SSTR2), Cisbio HTRF cAMP assay
Conditions: average pEC50; HTRF cAMP assay in stably-transfected cell line expressing SSTR2; cells incubated with compounds for 1-2h
Numbers only, as −log10 of the molar value.

compound | system_name | pEC50
COc1cc(F)cc(-c2cnc3[nH]c(-c4cccc(Br)c4O)nc3c2N2CCC(N)CC2)c1 [Compound 57] | Somatostatin Receptor 2 (SSTR2) (Homo sapiens, UniProt P30874) | 8.00

Supply recorded pEC50 for Cc1cc(F)cc(-c2cnc3ccc(-c4cc(F)cc(C(N)=O)c4)cc3c2O[C@H]2C[C@H](N)C2)c1 [Compound 19] here.
9.00

###

Give measured pEC50 for each item. Keep answers brief.
Target: UniProt P30874
Assay: Biochemical Assay for Activation of Somatostatin Receptor 2 (SSTR2), Cisbio HTRF cAMP assay
Details: average pEC50; HTRF cAMP assay in stably-transfected cell line expressing SSTR2; cells incubated with compounds for 1-2h
Numbers only, as −log10 of the molar value.

Solved cases below.
molecule | pEC50
Cc1cc(C)cc(-c2cnc3c(c2N2CCC(N)CC2)C(=O)N(c2ccc(F)c(F)c2)CC3)c1 | 7.60
Cc1cc(C)cc(-c2cnc3c(c2N2CC[C@H](N)C2)C(=O)N(c2cc(C)cc(C)c2)CC3)c1 | 5.90
Cc1cc(F)cc(-c2cnc3ccc4cc3c2N2CCC(CC2)NCC[C@H](N=[N+]=[N-])COc2c(C#N)cccc2-4)c1 (single isomer, unassigned) | 8.60
Cc1cc(F)cc(-c2cnc3ccc(-c4cc(F)cc(C(N)=O)c4)cc3c2O[C@H]2CC[C@@H](N)C2)c1 | 8.10

Your task in this section: give pEC50 for each listed record.
1. Nc1nc(Cl)ccc1C(=O)Nc1cncc(-c2ccccc2)c1N1CCC(N)CC1
2. NC1CCN(c2c(-c3cc(F)cc(F)c3)cnc3ccc(C4=CC=CC5(Cl)C(=O)NCCN45)cc23)CC1 (stereo not shown)
3. Cc1cc(F)cc(-c2cnc3ccc4cc3c2N2CCC(CC2)NC[C@H](O)CCOc2c(C#N)cccc2-4)c1 (single isomer, unassigned)
4. COCOc1c(C#N)cccc1-c1ccc2ncc(-c3cc(F)cc(F)c3)c(N3CC4(CNC4)C3)c2c1
5. Cc1cc(F)cc(-c2cnc3c(nc(-c4cc(F)cc(C(N)=O)c4)n3C)c2N2CCC(N)CC2)c1

7.90
8.10
5.80
5.20
6.80

###

Target: Somatostatin Receptor 2 (SSTR2) (Homo sapiens)
Experiment: Biochemical Assay for Activation of Somatostatin Receptor 2 (SSTR2), Cisbio HTRF cAMP assay
Details: average pEC50; HTRF cAMP assay in stably-transfected cell line expressing SSTR2; cells incubated with compounds for 1-2h
endpoint: EC50 (nM)
Answers are plain numbers, in nM.

Illustrative cases are given below, each with its answer.
structure_notation | EC50 (nM)
O=C1NCCCNC2CCN(CC2)c2c(-c3cc(F)cc(F)c3)cnc3ccc(cc23)-c2cccc1n2 | 6.31
N[C@H]1CC[C@H](Oc2c(-c3cc(F)cc(F)c3)cnc3ccc(-c4cc(F)cc(F)c4)cc23)C1 | 12.6
Cc1cc(F)cc(-c2cnc3ccc4cc3c2N2CCC(CC2)NCCNC(=O)Oc2ccccc2-4)c1 | 0.251
O=C1NCCNC2CCN(CC2)c2c(-c3cc(F)cc(F)c3)cnc3ccc(cc23)-c2cccc1n2 | 2510

Answer with the recorded EC50 for the compound listed here: "COc1c(C#N)cccc1-c1ccc2ncc(-c3cc(F)cc(F)c3)c(N3CCC(N)CC3)c2c1"
0.316

###

Please go through the items and note down their EC50.
Molecular target: Somatostatin Receptor 2 (SSTR2) (Homo sapiens, UniProt P30874)
Test: Biochemical Assay for Activation of Somatostatin Receptor 2 (SSTR2), Cisbio HTRF cAMP assay
Settings: average pEC50; HTRF cAMP assay in stably-transfected cell line expressing SSTR2; cells incubated with compounds for 1-2h
Numbers only, in nM.

Guide cases for EC50, answers given:
compound | measurement
COc1cc(F)cc(-c2cnc3ccc(-c4ccc5[nH]c(=O)[nH]c5c4)cc3c2O[C@@H]2CC[C@H](N)C2)c1 | 63.1
Cc1cc(F)cc(-c2cnc3[nH]c(-c4cccc(Br)c4O)nc3c2N2CCC(N)CC2)c1 | 3.16
CCOC(=O)c1cc(-c2cc(F)cc(F)c2)cc2c(N3CCC(N)CC3)c(-c3cc(F)cc(F)c3)cnc12 | 0.0398

Would you mind giving EC50 for every compound in the list below?
1. N#Cc1cccc(-c2ccc3ncc(-c4cc(F)cc(F)c4)c(O[C@H]4CC[C@@H](N)C4)c3c2)c1O
2. Cc1cc(F)cc(-c2cnc3ccc4cc3c2N2CCC(CC2)NCC[C@@H](N)COc2c(C#N)cccc2-4)c1 (single isomer, unassigned)
3. CO[C@@H]1CN(c2c(-c3cc(C)cc(F)c3)cnc3[nH]c(-c4cc(F)cc(C(N)=O)c4)nc23)CC[C@H]1N
4. Cc1cc(F)cc(-c2c[n+]3c4ccc(cc4c2N2CCC(N)CC2)-c2ccccc2OCCCC3)c1
5. NC(=O)c1cccc2c1OCCCCNC1CCN(CC1)c1c(-c3cc(F)cc(F)c3)cnc3ccc-2cc13
6. CO[C@@H]1CN(c2c(-c3cc(F)cc(F)c3)cnc3[nH]c(-c4cc(F)cc(C(N)=O)c4)nc23)CC[C@H]1N
7. Cc1cc(F)cc(-c2cnc3ccc(-c4cc(F)cc(C(N)=O)c4)cc3c2OC2CCCC(CN)C2)c1 (centres unmarked)

1. 200
2. 316
3. 1000
4. 10
5. 2
6. 1000
7. 20

Need EC50 for each of these compounds.
1. Fc1cc(F)cc(-c2cnc3ccc4cc3c2N2CCC(CC2)NCCCCOc2cccc-4c2)c1
2. Cn1c(-c2cc(F)cc(C(N)=O)c2)nc2c(N3CCC(N)CC3)c(-c3cc(F)cc(F)c3)cnc21

1: 7.94; 2: 2000

meta.source: patent US20260053794A1
